- Assay system: STING (Homo sapiens, UniProt Q86WV6, G230A/H232R/R293Q/R71H)
- Construct: host or cells: THP-1 / THP1-Dual / THP1-Lucia ISG cells
- Sequence (Q86WV6 whole entry R71H/G230A/H232R/R293Q): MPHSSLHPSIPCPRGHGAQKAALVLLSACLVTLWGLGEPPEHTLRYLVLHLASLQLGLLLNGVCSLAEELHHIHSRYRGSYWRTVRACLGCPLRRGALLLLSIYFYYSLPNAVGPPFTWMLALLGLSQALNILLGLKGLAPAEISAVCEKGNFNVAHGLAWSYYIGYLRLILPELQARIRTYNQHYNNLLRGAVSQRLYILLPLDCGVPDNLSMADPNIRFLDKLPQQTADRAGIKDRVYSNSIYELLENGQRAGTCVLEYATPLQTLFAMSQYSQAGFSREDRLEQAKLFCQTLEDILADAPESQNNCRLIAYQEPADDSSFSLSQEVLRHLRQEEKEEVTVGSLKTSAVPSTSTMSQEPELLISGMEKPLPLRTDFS
- Method notes: Interferon production in THP-1 cells under basal conditions (no external stimulation)
- Type: cell-based
- Condition label: 32 μM compound; no external stimulation; THP-1 cells
- Experimental: Methods of measuring STING activity and by extension, the activity of the compounds discussed herein, are known in the art. As an example, the STING pathway activity may be evaluated using reporter cell lines where a reporter gene (i.e., luciferase, GFP) is expressed under direct or indirect control of interferon response elements. […] The STING pathway activity was evaluated in THP1-Dual™ cells (Invivogen). […]
Measurement name: inhibition at 32 µM

Here are 3 compounds together with their reported answers.
# Compound, inhibition at 32 µM
records = [
    ("CC1(C)C(=O)N(Cc2c(Cl)cccc2Oc2cc(F)cc(F)c2)c2cc(F)ccc21", "< 50%"),
    ("CC1(C)C(=O)N(Cc2c(Cl)cccc2OCc2cc(F)cc(F)c2)c2cc(F)ccc21", "< 50%"),
    ("CC1(C)C(=O)N(Cc2c(Cl)cccc2OCc2cc(F)cc(F)c2)c2cc(C(F)(F)F)ccc21 [UT071a]", "< 50%"),
]

Per the record, `CC1(C)C(=O)N(Cc2c(F)cccc2Cl)c2cc(CNS(=O)(=O)c3c(F)cc(F)cc3F)ccc21` has inhibition at 32 µM of > 50%
